Taken from the supplement of paper PMC6555819.

Below, each of the sequences is paired with its reported PBM binding z-score value.
Test system: RXRa DBDmut IVT, anti-RXR (DBD mutation: RXRa K156A/R161A, NR concentration 90 nM)
Assay: PBM binding z-score (relative to random genomic background probes); higher = stronger binding; sequences stand for … in GC…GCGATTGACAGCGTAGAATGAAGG
Value Kind: PBM binding z-score

> print(dat)
                       sequence.string  measured.number
 1  GATACAGGGTCAGCTAGAGGCAAGAGTATGGAAA            0.963
 2  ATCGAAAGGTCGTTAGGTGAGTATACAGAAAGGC              2.2
 3  TCAGACAGGTGAAGGTAACACAGGTACGCAGTCG             1.56
 4  CCGACTGGAGCAAGGTTACCATAACGCACAGCCA            0.587
 5  CCTTACGGGTCAAGGTTATAGTACGGGTGGTACG             1.09
 6  CCTAGCAGGCAAGGGTCACTCAAGCATTTCGCTT            0.602
 7  TCTTGTAGATCAGCAGGTTTAGAAAGCTGGCCAA            0.412
 8  TCATATTGGTAAATGCTAGGTGAAAGTCCGATCT              1.7
 9  CGTACAAGGTCATAGGAGGTCAGTGAAGACAGAT             4.16
10  ATACCAAGGTGATTGTGAGGTCGTTGATACTAAC             1.27
11  AGAATGAGGTTATTAAGATCTGGGAATTGCGGTC             2.16
12  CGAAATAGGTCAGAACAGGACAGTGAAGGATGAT            0.269
